targetUnderTest: UniProtKB A0A024AXB9
Sequence (A0A024AXB9 whole entry): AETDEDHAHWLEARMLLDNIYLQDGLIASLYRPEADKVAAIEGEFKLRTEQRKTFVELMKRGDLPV
experimentSummary: Functional biochemical assay to identify treatments for viral infectious disease that targets Zika NS2B-NS3 protease. Utilizing a direct enzyme activity measurement method, reading the fluorescence intensity is used to characterize the relative potency of inhibitors as IC50.
Parameters: species or system PRVABC59
metric: pIC50
// pIC50: -log10(molar conc.)

Consider the following illustrative entries.
# smilesRepresentation, dataValue
measured = [
    ("CCc1cc(C)nc(C2CCN(Cc3c[nH]c4ccccc34)CC2)n1", 4.23),
    ("O=C(Nc1cc(Cl)cc(C(=O)Nc2cccc3c2CNC3)c1)OCc1ccccc1", 4.12),
    ("Cc1ncc(-c2cc(F)cc(C(=O)Nc3ccc4c(c3)CNC4)c2)o1", 6.82),
    ("O=C1c2c(O)ccc([N+](=O)[O-])c2C(=O)c2c([N+](=O)[O-])ccc(O)c21", 4.24),
]

Note: attention shifts to another entry.
Request: Provide pIC50 value for the following molecule: COc1ccccc1-c1ccc(S(=O)(=O)Nc2ccc(Cl)cc2C(=O)O)cc1
Result: 4.42
